# credit: the supplement of paper PMC10567573

B1: C1orf137 (parent)
chain: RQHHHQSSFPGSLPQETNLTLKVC

Variants of: B1
procedure details: protein stability index of a GFP-peptide fusion (GPS, HEK-293T) (PSI 1-6); higher = more stable;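 note: lentivirally expressed fusions sorted by FACS into six bins by GFP to DsRed ratio, PSI derived from sequencing read proportions per bin multiplied by bin number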
condition: c terminus: a fixed tail appended
Kind request: treat 3 as inclusive, so protein stability index at 3 or higher is Y, anything lower is N.

L13P    Y
T20R    Y
S12R    Y

Problem: Determine whether this variant has protein stability index no lower than 3: `S8G`
Result: N

Problem: Determine whether this variant has protein stability index no lower than 3: `P10E`
Result: N

Problem: Determine whether this variant has protein stability index no lower than 3: `L13S`
Result: Y

Problem: Is it the case that `S7R` has protein stability index reaching or exceeding 3?
Result: Y

Problem: Check this variant for protein stability index at or above 3: `L13Y`
Result: N

Problem: Given the entry `P14Y` , answer whether its protein stability index meets or surpasses 3.
Result: N
